Data origin: patent US5635519A

Tested on: PGE2
Test: Effect on production of prostaglandin E2 (PGE2) from rat peritoneal exudation cells
Assay type: cell-based
Conditions: A23187 2 μg/ml
metric: Production suppressing function, PGE2 (in words)

{"compound": "CNc1nc2c(C(OC(C)=O)c3cccnc3)c(C)c(O)c(C)c2s1 (stereo not shown)", "experimental.result": "enhanced at 0.1-100 μM"}
{"compound": "COc1c(O)c(C)c2sc(N)nc2c1Cc1cccnc1", "experimental.result": "enhanced at 0.1-100 μM"}
{"compound": "Cc1c(O)c(Cc2cccnc2)c2sc(N)nc2c1C.Cl.Cl", "experimental.result": "enhanced at 0.1-100 μM"}
